Listed here are sequences together with their documented furin cleavage Z-score.
# Measurement Target: furin, P09958;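 note: purified furin at 1:10 enzyme:substrate in 50 mM HEPES pH 7.5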
# Sequence (P09958 whole entry): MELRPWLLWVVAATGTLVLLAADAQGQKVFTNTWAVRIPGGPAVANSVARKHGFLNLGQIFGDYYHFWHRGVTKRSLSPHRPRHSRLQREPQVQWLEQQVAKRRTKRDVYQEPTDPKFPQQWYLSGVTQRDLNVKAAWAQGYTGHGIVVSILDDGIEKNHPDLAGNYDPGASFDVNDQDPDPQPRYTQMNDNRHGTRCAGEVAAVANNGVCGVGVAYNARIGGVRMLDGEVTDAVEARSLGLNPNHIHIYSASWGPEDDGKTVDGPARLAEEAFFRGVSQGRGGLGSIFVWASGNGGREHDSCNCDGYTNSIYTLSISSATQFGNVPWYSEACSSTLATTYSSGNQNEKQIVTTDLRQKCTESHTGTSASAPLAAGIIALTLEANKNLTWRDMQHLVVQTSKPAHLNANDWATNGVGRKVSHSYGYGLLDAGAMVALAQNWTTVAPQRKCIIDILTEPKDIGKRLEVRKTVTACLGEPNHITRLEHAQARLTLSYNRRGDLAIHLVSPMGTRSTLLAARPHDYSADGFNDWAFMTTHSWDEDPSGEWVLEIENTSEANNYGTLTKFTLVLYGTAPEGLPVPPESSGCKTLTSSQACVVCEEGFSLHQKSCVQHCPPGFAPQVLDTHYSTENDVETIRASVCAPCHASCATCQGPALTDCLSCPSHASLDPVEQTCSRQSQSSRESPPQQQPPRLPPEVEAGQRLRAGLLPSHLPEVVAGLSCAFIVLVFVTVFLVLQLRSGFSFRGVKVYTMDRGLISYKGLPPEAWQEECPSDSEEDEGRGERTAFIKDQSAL
# Protocol Text: furin cleavage Z-score vs untreated control; higher = more cleavage, active = 3.5 or more, inactive = 1 or less, 8 variable residues between constant flanks
# Conditions: 7.5 min
The other results are listed elsewhere or left out. How many sequences the whole screen found active is unknown.
Attribute Measured: furin cleavage Z-score

{"Item Sequence": "CAQSLRQRKSAGNASASA [FS-915]", "Reported Value": 0.195}
{"Item Sequence": "CAHGLSAFSLAGNASASA [HC1604]", "Reported Value": 0.973}
{"Item Sequence": "CARTIRSFEGAGNASASA [FS-2240]", "Reported Value": 3.24}
{"Item Sequence": "CASPDAELIEAGNASASA [HC1271]", "Reported Value": -0.191}
{"Item Sequence": "CAGPARSHRSAGNASASA [FS-1525]", "Reported Value": 2.6}
{"Item Sequence": "CAEVPCHRKSAGNASASA [HC2394]", "Reported Value": 0.666}
{"Item Sequence": "CAVVCCSMSDAGNASASA [HC2091]", "Reported Value": -0.81}
